Test system: Circulating tumour cells (CTCs) from a patient with GI cancer (Cholangio Carcinoma, stage 4)
Assay: Drug response score assay on blood sample, Example 9
Assay type: cell-based, human
Design: key: normalized drug response metric per Gupta et al. 2020
Settings: conc. 1 of each drug as in Table 27; blood sample; t96h
Reported Drug response score from blood sample, conc. 1 values for a set of molecules
Output spec: single numeric token, no unit.

For orientation, consider the following solved cases.
Chemical smiles	Test value
COc1cc2nccc(Oc3ccc(NC(=O)NC4CC4)c(Cl)c3)c2cc1C(N)=O	0.2851
CCc1c2c(nc3ccc(OC(=O)N4CCC(N5CCCCC5)CC4)cc13)-c1cc3c(c(=O)n1C2)COC(=O)[C@]3(O)CC	0.1974
CC(=O)O[C@H]1C(=O)[C@@]2(C)[C@H]([C@H](OC(=O)c3ccccc3)[C@]3(O)C[C@H](OC(=O)[C@H](O)[C@@H](NC(=O)c4ccccc4)c4ccccc4)C(C)=C1C3(C)C)[C@]1(OC(C)=O)CO[C@@H]1C[C@@H]2O	0.2346

Let us examine a further case.
Look up Drug response score from blood sample, conc. 1 for this molecule: O=c1[nH]cc(F)c(=O)[nH]1 0.4147

Hey, just so you know, these numbers are from patent US20250290915A1.
